- Target or system: T1, recombinant human CD123-Fc (human, UniProt P26951 19-305, limits assumed)
- T1 construct: Panning and sorting antigen; not shown: Fc part
- T1 sequence (looked up): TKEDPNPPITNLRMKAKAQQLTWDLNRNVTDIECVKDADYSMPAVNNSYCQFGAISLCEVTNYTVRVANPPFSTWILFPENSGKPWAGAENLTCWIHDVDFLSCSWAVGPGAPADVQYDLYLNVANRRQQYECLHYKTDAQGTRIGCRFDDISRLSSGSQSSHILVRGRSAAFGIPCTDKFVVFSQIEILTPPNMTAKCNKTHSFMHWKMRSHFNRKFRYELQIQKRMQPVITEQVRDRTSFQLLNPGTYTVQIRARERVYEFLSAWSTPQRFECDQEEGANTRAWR
- Test description: yeast display; 3 rounds of MACS and a FACS sort (top 1%) with CD123-Fc; clone sequenced from the sorted pool, not tested singly
Experimental endpoint: binding result

[[record]]
binder = "CD123 hScFv binder M12318 (scFv) scFv: EVQLVQSGGGVVQPGRSLRLSCAASGFTFSSYSMNWVRQAPGKGLEWVSSISSSSSYIYYADSVKGRFTISRDNAKNTLYLQMNSLRAEDTAVYYCARDNWGSLDYWGQGTLVTVSSGGGGSGGGGSGGGGSDIQMTQSPSSLSASVGDRVTITCQASQDISNYLNWYQQKPGKAPKLLIYDASNLETGVPSRFSGSGSGTDFTFTISSLQPEDIATYYCQQYDNLPHMYTFGQGTKLEIK"
measurement = "binds"

[[record]]
binder = "CD123 hScFv binder M12305 (scFv) scFv: QVQLVQSGAEVKKPGSSVKVSCKASGGTFSSYAISWVRQAPGQGLEWMGGIIPIFGTANYAQKFQGRVTITTDESTSTAYMELSSLRSEDTAVYYCARRGWGGFSSGSAFDIWGQGTMVTVSSGGGGSGGGGSGGGGSNFMLTQPHSVSESPGNTVTISCTGSSGTIGSNFVQWYQQSPGRAPTLLIYEDTKRPSGVPPRFAGSVDSSSNSASLTISGLKTEDEADYYCQSYDSSNWVFGGGTKLTVLG"
measurement = "binds"

[[record]]
binder = "CD123 hScFv binder M12317 (scFv) scFv: QVQLVETGGGLVKPGGSLRLSCAASGFTFSSYSMNWVRQAPGKGLEWVSSISSSSSYIYYADSVKGRFTISRDNAKNSLYLQMNSLRAEDTAVYYCARDGDFWSGAIDYWGQGTLVTVSSGGGGSGGGGSGGGGSDIQLTQSPSSLSASVGDRVTITCQASQDISNYLNWYQQKPGKAPKLLIYDASNLETGVPSRFSGSGSGTDFTFTISSLQPEDIATYYCQQYDNLPLFGGGTKLEIK"
measurement = "binds"

